B1: ANKRD40 (parent)
chain: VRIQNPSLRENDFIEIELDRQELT

Variants of: B1
MEASUREMENT DESCRIPTION: protein stability index of a GFP-peptide fusion (GPS, HEK-293T) (PSI 1-6); higher = more stable;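 also: lentivirally expressed fusions sorted by FACS into six bins by GFP to DsRed ratio, PSI derived from sequencing read proportions per bin multiplied by bin number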
MEASUREMENT PARAMETERS: c terminus: a fixed tail appended
RECORDED ENDPOINT: protein stability index
Format: numeric value only, no unit, no commentary.

The examples below pair each entry with its known result.
Request: Given `I14Q` , state its recorded protein stability index.
Response: 4.31

Request: Given `L8H` , state its recorded protein stability index.
Response: 2.93

Request: Given `T24E` , state its recorded protein stability index.
Response: 3.16

Request: Given `F13Q` , state its recorded protein stability index.
Response: 4.32

Consider the additional variant presented here.
Request: Given `F13L` , state its recorded protein stability index.
Response: 3.42
